Source of measurements: ChEMBL document CHEMBL2163263

LC50 for assorted molecules
# assay.procedure: Toxicity against human NCI60 cells incubated for 48 hrs by SRB assay
# Format: cell-based
# experimental.setup: nci60, 48 h

- molecule: "COc1cc(/C=C2\\C(=O)Nc3ccccc32)cc(OC)c1O"
  LC50, µM: 72.4
- molecule: "O=C1/C(=C\\c2ccccn2)c2ccccc2N1c1c(Cl)cccc1Cl"
  LC50, µM: 27.5
- molecule: "CC1=NN(c2cccc(Cl)c2)C(=O)/C1=C\\c1cn(CC(O)CN2CCCCC2)c2ccccc12 (stereo unspecified)"
  LC50, µM: 47.8
- molecule: "COc1cc(/C=C2\\C(=O)N(c3c(Cl)cccc3Cl)c3ccccc32)cc(OC)c1O"
  LC50, µM: 61.6
- molecule: "O=C1/C(=C\\c2cn(CC(O)CN3CCCCC3)c3ccccc23)c2ccccc2N1c1c(Cl)cccc1Cl (stereo unspecified)"
  LC50, µM: 9.1
- molecule: "CC1=NN(c2cccc(Cl)c2)C(=O)/C1=C\\c1c[nH]c2ccc(Br)cc12"
  LC50, µM: 50.1

====

# assay.procedure: Therapeutic index, ratio of LC50 for human NCI60 cells to GI50 for human NCI60 cells
# Assay type: cell-based
# experimental.setup: read-out: TI
Lab note: cut-off is 10. Strictly less in selectivity ratio is condition met. Exactly 10 or more is condition not met.

- compound: "CC1=NN(c2cccc(Cl)c2)C(=O)/C1=C\\c1c[nH]c2ccc(Br)cc12"
  classification: "condition not met"
- compound: "COc1cc(/C=C2\\C(=O)N(c3c(Cl)cccc3Cl)c3ccccc32)cc(OC)c1O"
  classification: "condition not met"
- compound: "O=C1/C(=C\\c2ccccn2)c2ccccc2N1c1c(Cl)cccc1Cl"
  classification: "condition not met"
- compound: "CC1=NN(c2cccc(Cl)c2)C(=O)/C1=C\\c1cn(CC(O)CN2CCCCC2)c2ccccc12 (stereo not given)"
  classification: "condition not met"
- compound: "O=C1/C(=C\\c2cn(CC(O)CN3CCCCC3)c3ccccc23)c2ccccc2N1c1c(Cl)cccc1Cl (stereo not given)"
  classification: "condition met"

====

# system.under.test: Dihydrofolate reductase (Homo sapiens) (UniProt P00374)
# Sequence (P00374 whole entry): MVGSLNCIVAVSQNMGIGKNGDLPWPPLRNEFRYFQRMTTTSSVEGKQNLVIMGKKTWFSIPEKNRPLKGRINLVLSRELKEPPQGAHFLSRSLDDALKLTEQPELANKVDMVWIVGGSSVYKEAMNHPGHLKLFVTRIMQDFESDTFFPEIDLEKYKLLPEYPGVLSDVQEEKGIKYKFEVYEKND
# assay.procedure: Binding affinity to DHFR by [1H]NMR spectroscopy
Calls of active or inactive are those of the source. The calls are words filed in the database; no cut-off is given here.
Classes used: active, inactive

- molecule: "CC1=NN(c2cccc(Cl)c2)C(=O)/C1=C\\c1cn(CC(O)CN2CCCCC2)c2ccccc12 (stereo unspecified)"
  system.under.test: "Dihydrofolate reductase (Homo sapiens) (UniProt P00374)"
  classification: "active"
- molecule: "CC1=NN(c2cccc(Cl)c2)C(=O)/C1=C\\c1c[nH]c2ccc(Br)cc12"
  system.under.test: "Dihydrofolate reductase (Homo sapiens) (UniProt P00374)"
  classification: "active"
- molecule: "COc1cc(/C=C2\\C(=O)N(c3cccc(Cl)c3)N=C2C)cc(OC)c1O"
  system.under.test: "Dihydrofolate reductase (Homo sapiens) (UniProt P00374)"
  classification: "inactive"
- molecule: "COc1cc(C=C2C(=O)N(C)C(=O)N(C)C2=O)cc(OC)c1O"
  system.under.test: "Dihydrofolate reductase (Homo sapiens) (UniProt P00374)"
  classification: "inactive"
- molecule: "O=C1/C(=C\\c2ccccn2)c2ccccc2N1c1c(Cl)cccc1Cl"
  system.under.test: "Dihydrofolate reductase (Homo sapiens) (UniProt P00374)"
  classification: "active"
- molecule: "O=C1/C(=C\\c2cn(CC(O)CN3CCCCC3)c3ccccc23)c2ccccc2N1c1c(Cl)cccc1Cl (stereo unspecified)"
  system.under.test: "Dihydrofolate reductase (Homo sapiens) (UniProt P00374)"
  classification: "active"
